- ASSAY EXPLANATION: in vivo
- CONDITION SUMMARY: male, NODSCID 1L2RγKO, mouse, iv, total radioactivity, Brain uptake

{"COMPOUND": "O=C(O)COC[C@H](NC(=O)N[C@@H](CCCCNC(=O)[C@H](Cc1c2ccccc2cc2ccccc12)NC(=O)[C@H]1CC[C@H](CNC(=O)CN2CCN(CC(=O)O)CCN(CC(=O)O)CCN(CC(=O)O)CC2)CC1)C(=O)O)C(=O)O [68Ga-HTK03187, metal not drawn]", "tissue uptake at 1 h, %ID/g": 0.02}
{"COMPOUND": "O=C(O)CCC[C@H](NC(=O)N[C@@H](CCCCNC(=O)[C@H](Cc1c2ccccc2cc2ccccc12)NC(=O)Cc1ccc(CNC(=O)CN2CCN(CC(=O)O)CCN(CC(=O)O)CCN(CC(=O)O)CC2)cc1)C(=O)O)C(=O)O [68Ga-HTK04036, metal not drawn]", "tissue uptake at 1 h, %ID/g": 0.02}
{"COMPOUND": "O=C(O)CCCCC(NC(=O)N[C@@H](CCCCNC(=O)[C@H](Cc1c2ccccc2cc2ccccc12)NC(=O)[C@H]1CC[C@H](CNC(=O)CN2CCN(CC(=O)O)CCN(CC(=O)O)CCN(CC(=O)O)CC2)CC1)C(=O)O)C(=O)O (single isomer, unassigned) [68Ga-HTK03189A, metal not drawn]", "tissue uptake at 1 h, %ID/g": 0.02}
{"COMPOUND": "O=C(O)CCC[C@H](NC(=O)N[C@@H](CCCCNC(=O)[C@H](Cc1c2ccccc2cc2ccccc12)NC(=O)c1ccc(NC(=O)CN2CCN(CC(=O)O)CCN(CC(=O)O)CCN(CC(=O)O)CC2)cc1)C(=O)O)C(=O)O [68Ga-HTK04041, metal not drawn]", "tissue uptake at 1 h, %ID/g": 0.02}
{"COMPOUND": "O=C(O)CCC[C@H](NC(=O)N[C@@H](CCCCNC(=O)[C@H](Cc1ccc2ccccc2c1)NC(=O)[C@H]1CC[C@H](CNC(=O)CN2CCN(CC(=O)O)CCN(CC(=O)O)CCN(CC(=O)O)CC2)CC1)C(=O)O)C(=O)O [68Ga-HTK03169, metal not drawn]", "tissue uptake at 1 h, %ID/g": 0.02}
{"COMPOUND": "O=C(O)CC[C@H](NC(=O)N[C@@H](CCCCNC(=O)[C@H](Cc1c2ccccc2cc2ccccc12)NC(=O)[C@H]1CC[C@H](CNC(=O)CN2CCN(CC(=O)O)CCN(CC(=O)O)CCN(CC(=O)O)CC2)CC1)C(=O)O)C(=O)O [68Ga-HTK03041, metal not drawn]", "tissue uptake at 1 h, %ID/g": 0.1}
{"COMPOUND": "O=C(O)CN1CCN(CC(=O)O)CCN(CC(=O)NC[C@H]2CC[C@H](C(=O)N[C@@H](Cc3c4ccccc4cc4ccccc34)C(=O)NCCCC[C@H](NC(=O)N[C@@H](C[C@H](F)C(=O)O)C(=O)O)C(=O)O)CC2)CCN(CC(=O)O)CC1 [68Ga-HTK04040, metal not drawn]", "tissue uptake at 1 h, %ID/g": 0.25}

----------
Entries and their tissue uptake at 1 h
- ASSAY EXPLANATION: in vivo
- Set-up: species or system mice
- CONDITION SUMMARY: male, NODSCID 1L2RγKO, mouse, iv, total radioactivity, Seminal uptake
EXPERIMENTAL ENDPOINT: tissue uptake at 1 h (%ID/g)

{"MOLECULE": "COc1ccc(CCCC(=O)NCC(=O)N[C@@H](CCCCNC(=O)CN2CCN(CC(=O)O)CCN(CC(=O)O)CCN(CC(=O)O)CC2)C(=O)NC[C@H]2CC[C@H](C(=O)N[C@@H](Cc3c4ccccc4cc4ccccc34)C(=O)NCCCC[C@H](NC(=O)N[C@@H](COCC(=O)O)C(=O)O)C(=O)O)CC2)cc1 [177Lu-HTK04028, metal not drawn]", "MEAS VALUE": 1.53}
{"MOLECULE": "COc1ccc(CCCC(=O)NCC(=O)N[C@@H](CCCCNC(=O)CN2CCN(CC(=O)O)CCN(CC(=O)O)CCN(CC(=O)O)CC2)C(=O)NC[C@H]2CC[C@H](C(=O)N[C@@H](Cc3c4ccccc4cc4ccccc34)C(=O)NCCCC[C@H](NC(=O)N[C@@H](CCCC(=O)O)C(=O)O)C(=O)O)CC2)cc1 [177Lu-HTK03170, metal not drawn]", "MEAS VALUE": 1.22}
{"MOLECULE": "O=C(O)CCC[C@H](NC(=O)N[C@@H](CCCCNC(=O)[C@H](Cc1c2ccccc2cc2ccccc12)NC(=O)[C@H]1CC[C@H](CNC(=O)CN2CCN(CC(=O)O)CCN(CC(=O)O)CCN(CC(=O)O)CC2)CC1)C(=O)O)C(=O)O [177Lu-HTK03149, metal not drawn]", "MEAS VALUE": 0.38}
